Origin of values: PubChem BioAssay (NCI)

- Test system: KM12 colon
- experiment: NCI-60 one-dose screen, 48 h
- condition-info: 10 µM unless noted
The panel holds about 83,000 compounds, 20% with a hit somewhere; the sample as a whole holds those more often. Active and inactive are the calls of the source. Rule for the calls: active = growth percent below 10; inactive = the rest.
Permitted responses: label 1 = active, label 0 = inactive

Solved cases below.
{"molecule": "O=C(Nc1ccc(C(=O)/C=C/c2ccc(N3CCOCC3)cc2)cc1)Nc1ccc([N+](=O)[O-])cc1", "group-label": "label 0"}
{"molecule": "Cc1cc(C)c(-c2cc(O)c(-c3c(C)cc(C)cc3C)cc2O)c(C)c1", "group-label": "label 0"}
{"molecule": "Cc1ccc2c(c1)/C(=N\\N=C/c1cn(C(C)C)c3ccccc13)C(=O)N2", "group-label": "label 0"}

Task: Write down the call the test reported for this molecule. Item: c1cc2ccc1CNCCN1CCNCc3ccc(cc3)Oc3ccc(cc3)CNCCN(CCNCc3ccc(cc3)O2)CCNCc2ccc(cc2)Oc2ccc(cc2)CNCC1
Output: label 1

Task: Write down the call the test reported for this molecule. Item: c1ccc(-c2nc(N3CCCNCC3)c3nc(-c4ccccc4)oc3n2)cc1
Output: label 1

Task: Write down the call the test reported for this molecule. Item: Cn1cc(-c2nnc(-c3cn(C)c4ncccc34)o2)c2ccccc21
Output: label 0

Task: Write down the call the test reported for this molecule. Item: CC(C)C1=NOC(=O)C1=Cc1cn(-c2ccccc2)nc1-c1ccccc1
Output: label 0

Task: Write down the call the test reported for this molecule. Item: C=CC1=C(C)C2=NC1=CC1=NC(=CC3=C(C)C4=C(O)C(C(=O)O)C(=C5NC(=C2)C(C)C5CCC(=O)O)C4=N3)C(CC)=C1C (stereo not given)
Output: label 0

Task: Write down the call the test reported for this molecule. Item: Cc1cccc(C[C@H](NC(=O)Nc2ccc(Cl)cc2F)C(=O)N[C@@H]2C(=O)N3C[C@H](OC(=O)CCN(C)C)C[C@H]3C(=O)N3CCCC[C@H]3C(=O)N[C@@H](C)C(=O)N3C[C@H](C)C[C@H]3C(=O)O[C@H]2C)c1
Output: label 0

Task: Write down the call the test reported for this molecule. Item: Cc1nn(-c2ccccc2)c(N2CCOCC2)c1-c1nc2ccc([N+](=O)[O-])cc2[nH]1
Output: label 0

====

- Test system: KM12 colon
- experiment: NCI-60 one-dose screen, 48 h
- condition-info: 10 µM unless noted
This is part of a sample that, as a whole, favours compounds with a hit. Of some 83,000 tested, about 20% had one in any assay. The source made the active and inactive calls. How the source made its calls: active means growth percent below 10; inactive means the rest.
Permitted responses: active, inactive

Solved cases below.
{"compound": "CCOC(=O)C(C(C)=O)c1nc2sc3cc(Cl)c(Cl)cc3n2c(=O)c1C#N (centres undefined)", "assay-system": "KM12 colon", "group-label": "inactive"}
{"compound": "C#C[C@]1(O)CC[C@H]2[C@@H]3CC=C4c5nc(Nc6ccccn6)sc5CC[C@]4(C)[C@H]3CC[C@@]21C", "assay-system": "KM12 colon", "group-label": "active"}
{"compound": "O=C(NCCCCCCCNC(=O)OCc1ccc2c(Cl)cc(Cl)c(O)c2n1)OCc1ccc2c(Cl)cc(Cl)c(O)c2n1", "assay-system": "KM12 colon", "group-label": "active"}

Now for another entry.
Task: Write down the call the test reported for this compound. Item: CCN=Cc1c(O)c(O)c(C(C)C)c2cc(C)c(-c3c(C)cc4c(C(C)C)c(O)c(O)c(C=NCC)c4c3O)c(O)c12
Output: inactive
